- Species on record: Rattus norvegicus
- assay-procedure: DrugMatrix - Regimen: Daily Repeat
- Type: toxicity, organism-based, Sprague-Dawley
- Parameters: regimen Daily Repeat, gender Male, age 6-8 weeks
- measurement-conditions: in vivo, po, 1500 mg/kg, 72 h, tissue Plasma, route oral GAVAGE, dose level High, time 3 day, vehicle .5 % CMC
recorded-endpoint: CREATINE PHOSPHOKINASE (u/L)
Provide only the numeric value, understood in u/L.

Cc1cc(=O)n(-c2ccccc2)n1C [ANTIPYRINE] = 183.33

Entry O=C(N[C@H](CO)[C@H](O)c1ccc([N+](=O)[O-])cc1)C(Cl)Cl [CHLORAMPHENICOL] , CREATINE PHOSPHOKINASE reported as 530

Entry NC(=O)c1cnccn1 [PYRAZINAMIDE] , CREATINE PHOSPHOKINASE reported as 136.33

###

Overview of recorded MEAN CORPUSCULAR HEMOGLOBIN for various compounds
- Species: Rattus norvegicus
- assay-procedure: DrugMatrix - Regimen: Daily Repeat
- Type: toxicity, organism-based, Sprague-Dawley
- Set-up: regimen Daily Repeat, gender Male, age 6-8 weeks
- measurement-conditions: in vivo, po, 1500 mg/kg, 120 h, tissue Blood, route oral GAVAGE, dose level High, time 5 day, vehicle .5 % CMC
Provide only the numeric value, understood in pg.

These recorded examples may help you get a feel for the data.
NC(=O)c1cnccn1 [PYRAZINAMIDE] = 22.5
CO[C@H]1/C=C/O[C@@]2(C)Oc3c(C)c(O)c4c(c3C2=O)C2=NC3(CCN(CC(C)C)CC3)NC2=C(NC(=O)/C(C)=C\C=C\[C@H](C)[C@H](O)[C@@H](C)[C@@H](O)[C@@H](C)[C@H](OC(C)=O)[C@@H]1C)C4=O = 24.5
Cc1cc(=O)n(-c2ccccc2)n1C [ANTIPYRINE] = 26.43

Now look at this one.
Entry Cc1ccc(S(=O)(=O)NC(=O)NN2CC3CCCC3C2)cc1 (configuration not stated) [GLICLAZIDE] , MEAN CORPUSCULAR HEMOGLOBIN reported as 23.4

###

- Species on record: Rattus norvegicus
- assay-procedure: DrugMatrix - Regimen: Daily Repeat
- Format: toxicity, organism-based, Sprague-Dawley
- Parameters: regimen Daily Repeat, gender Male, age 6-8 weeks
- measurement-conditions: in vivo, iv, 0 mg/kg, 72 h, tissue Blood, dose level Control, time 3 day, vehicle 100 % SALINE
Overview of recorded MEAN CORPUSCULAR VOLUME for various compounds
Provide only the numeric value, understood in fL.

COc1cccc2c1C(=O)c1c(O)c3c(c(O)c1C2=O)C[C@@](O)(C(=O)CO)C[C@@H]3O[C@H]1C[C@H](N)[C@H](O)[C@H](C)O1 = 64.75
COc1cccc2c1C(=O)c1c(O)c3c(c(O)c1C2=O)C[C@@](O)(C(=O)CO)C[C@@H]3O[C@H]1C[C@H](N)[C@@H](O)[C@H](C)O1 [EPIRUBICIN] = 65.2
CC[C@]1(O)C[C@@H]2CN(CCc3c([nH]c4ccccc34)[C@@](C(=O)OC)(c3cc4c(cc3OC)N(C)[C@H]3[C@@](O)(C(=O)OC)[C@H](OC(C)=O)[C@]5(CC)C=CCN6CC[C@]43[C@@H]65)C2)C1 = 64.37
CC(=O)N[C@@H]1[C@H](Oc2c3cc4cc2Oc2ccc(cc2Cl)[C@@H](O[C@@H]2O[C@@H](CO)[C@@H](O)[C@H](O)[C@@H]2NC(C)=O)[C@@H]2NC(=O)[C@H](NC(=O)[C@@H]4NC(=O)[C@H]4NC(=O)[C@@H](Cc5ccc(c(Cl)c5)O3)NC(=O)[C@H](N)c3ccc(O)c(c3)Oc3cc(O)cc4c3)c3ccc(O)c(c3)-c3c(O[C@H]4O[C@H](CO)[C@@H](O)[C@@H](O)[C@@H]4O)cc(O)cc3[C@@H](C(=O)O)NC2=O)O[C@@H](CO)[C@@H](O)[C@@H]1O = 63.27

Entry CCC1=C[C@@H]2CN(C1)Cc1c([nH]c3ccccc13)[C@@](C(=O)OC)(c1cc3c(cc1OC)N(C)[C@H]1[C@@](O)(C(=O)OC)[C@H](OC(C)=O)[C@]4(CC)C=CCN5CC[C@]31[C@@H]54)C2 , MEAN CORPUSCULAR VOLUME reported as 61.57
